These data points were gathered from patent US20230009608A1.

Would you mind telling me the reported IC50 of each entry?
# system: GRK2 (Homo sapiens, UniProt P25098)
# Construct: purchased SignalChem A14-10G
# experiment.description: ADPGlo GRK2 Inhibition Assay (Example 8)
# Format: biochemical
# run.conditions: Enzyme Assay A, ADPGlo (Example 8); read-out: A: Enzymatic GRK2: IC50 (nM) (Example 8)
Answers are plain numbers, in nM.

A selection of reference data follows.
Field request: IC50 | item: `CNS(=O)(=O)c1cccc(F)c1CNC(=O)c1cccc(NCc2nnc(-c3ccncc3F)n2C)c1`
33.9

Field request: IC50 | item: `COc1ccnc(CNC(=O)c2cccc(NCc3nnc(-c4ccncn4)n3C)c2)c1F`
200

Field request: IC50 | item: `O=C(N[C@@H]1COCc2ccccc21)c1cccc(NCc2nnc(-c3ccncc3)n2CCO)c1`
9.28

Would you mind listing IC50 for each of the following compounds?
1. Cn1cc(-c2cc(CNC(=O)c3cccc(NCc4nnc(-c5ccncn5)n4C)c3)ccn2)cn1
2. Cn1c(CNc2cccc(C(=O)N[C@H]3COCc4ccccc43)c2)nnc1-c1ccncc1F
3. C[C@H](NC(=O)c1cccc(NCc2nnc(-c3ccncn3)n2C)c1)c1cccnc1 [drawing 345]

1: 17; 2: 32.5; 3: 420

Would you mind listing IC50 for each of the following compounds?
1. Cn1c(CNc2cccc(C(=O)NCc3cocn3)c2)nnc1-c1ccncn1
2. Cn1ncc(Br)c1CNC(=O)c1cccc(NCc2nnc(-c3ccncn3)n2C)c1
3. Cc1noc(C)c1CNC(=O)c1cccc(NCc2nnc(-c3ccncc3)[nH]2)c1

[27, 22, 24]

====

# system: GRK2 (Homo sapiens)
# Construct: purchased SignalChem A14-10G
# Sequence (P25098 1-689): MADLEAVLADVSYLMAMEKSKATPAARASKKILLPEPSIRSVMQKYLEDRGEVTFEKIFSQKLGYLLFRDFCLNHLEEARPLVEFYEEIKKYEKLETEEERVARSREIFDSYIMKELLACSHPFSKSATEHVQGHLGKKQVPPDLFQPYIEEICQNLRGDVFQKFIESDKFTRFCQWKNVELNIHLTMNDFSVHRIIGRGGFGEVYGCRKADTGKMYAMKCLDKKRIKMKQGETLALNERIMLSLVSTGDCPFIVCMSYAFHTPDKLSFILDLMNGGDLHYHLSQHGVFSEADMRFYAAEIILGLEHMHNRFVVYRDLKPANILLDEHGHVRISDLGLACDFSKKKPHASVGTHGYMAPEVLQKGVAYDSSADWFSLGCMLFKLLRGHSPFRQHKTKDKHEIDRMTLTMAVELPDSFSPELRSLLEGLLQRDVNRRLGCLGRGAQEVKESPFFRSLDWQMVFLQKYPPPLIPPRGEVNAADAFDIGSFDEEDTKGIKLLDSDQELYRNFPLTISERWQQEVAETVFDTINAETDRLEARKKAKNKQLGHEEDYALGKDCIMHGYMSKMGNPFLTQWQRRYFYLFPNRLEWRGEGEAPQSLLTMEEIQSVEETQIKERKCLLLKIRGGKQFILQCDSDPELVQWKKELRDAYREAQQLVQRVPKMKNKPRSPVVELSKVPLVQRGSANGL
# experiment.description: GRK2 Inhibition Assay (TR-FRET, Example 7)
# Type: biochemical
Would you mind telling me the reported pIC50 of each entry?
Numbers only, as −log10 of the molar value.

Would you mind listing pIC50 for each of the following compounds?
1. C#Cc1cccc(OS(=O)(=O)F)c1CNC(=O)c1cccc(NCc2nnc(-c3ccncc3)[nH]2)c1
2. O=C(NCc1ccccc1OS(=O)(=O)F)c1cccc(NCc2nnc(-c3ccncc3)n2CCCO)c1

1. 8.38
2. 7.77

Would you mind listing pIC50 for each of the following compounds?
1. O=C(NCc1cccc(OS(=O)(=O)F)c1)c1cccc(NCc2nnc(-c3ccncc3)n2CCCO)c1
2. O=C(NCc1cccc(OS(=O)(=O)F)c1)c1cccc(NCc2nnc(-c3ccncc3)[nH]2)c1

[7.30, 7.59]

Would you mind listing pIC50 for each of the following compounds?
1. O=C(NCCc1ccccc1OS(=O)(=O)F)c1cccc(NCc2nnc(-c3ccncc3)[nH]2)c1
2. O=C(NCc1ccccc1OS(=O)(=O)F)c1cccc(NCc2nnc(-c3ccncc3)[nH]2)c1
3. O=C(NCc1ccc(OS(=O)(=O)F)cc1)c1cccc(NCc2nnc(-c3ccncc3)[nH]2)c1
4. O=C(NCCc1cccc(OS(=O)(=O)F)c1)c1cccc(NCc2nnc(-c3ccncc3)[nH]2)c1

7.14
7.92
7.70
6.68
